viability, T/C reference
tested on: 429239-143-T-J1-PDC complex spheroid viability; experiment: Anticancer human tumor 429239-143-T-J1-PDC patient-derived small cell lung carcinoma cell line growth inhibition [POLQ]; conditions: second compound 3.16 µM; first compound 0.1 µM; hits give low values
Reply numerically in %, unit not repeated.

>  <molecule>
O=C(Nc1ccc(O)c(NS(=O)(=O)c2ccc(F)cc2)c1)c1ccc(-c2ccccc2)cc1 + COC1C(OC(N)=O)C(O)C(Oc2ccc3c(O)c(NC(=O)c4ccc(O)c(CC=C(C)C)c4)c(=O)oc3c2C)OC1(C)C

>  <viability, T/C (%)>
90

$$$$
>  <molecule>
COc1ccc([C@@H](O)c2cc(-c3ncnc4cc(N5CCOCC5)ccc34)c(F)cc2Cl)nn1 + Cc1cccc(N(C)C(=O)C2C(O)CCN2c2nc(C)cc(C(F)(F)F)c2C#N)c1

>  <viability, T/C (%)>
98.8

$$$$

Consider the additional molecule presented here.
[in] Please look up its viability, T/C: CC(C)n1c(=O)n(C)c2cnc3cc(F)c(-c4ccc(OCCCN5CCCCC5)nc4)cc3c21 + Nc1ccc(C#CCN(C(=O)Cc2ncc(C(F)(F)F)cc2C(F)(F)F)c2ccc(F)cc2)nn1
[out] 91.4

----------
// values below are reported viability, T/C
tested on: 429239-143-T-J1-PDC complex spheroid viability; assay: Anticancer human tumor 429239-143-T-J1-PDC cell line growth inhibition [POLQ]; conditions: second compound 3.16 µM; first compound 0.00316 µM; hits give low values;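 note: luminescence signal used as surrogate measure of viable cells; spheroids exposed to compounds for seven days before readout; 100% = DMSO vehicle control viability as luminescence relative to vehicle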
// return numeric value only (unit: %, not printed)

Here's what some known entries look like.
>  <molecule>
Cn1ncnc1[C@H]1c2n[nH]c(=O)c3cc(F)cc(c23)N[C@@H]1c1ccc(F)cc1 + COC1C(OC(N)=O)C(O)C(Oc2ccc3c(O)c(NC(=O)c4ccc(O)c(CC=C(C)C)c4)c(=O)oc3c2C)OC1(C)C

>  <unitsSymbol>
%

>  <readoutNumber>
77.7

$$$$
>  <molecule>
COc1cccc(OCCCN)c1-c1cc(Nc2cnc(C#N)cn2)n[nH]1 + Cc1cccc(N(C)C(=O)C2C(O)CCN2c2nc(C)cc(C(F)(F)F)c2C#N)c1

>  <unitsSymbol>
%

>  <readoutNumber>
117

$$$$
>  <molecule>
COc1cccc(OCCCN)c1-c1cc(Nc2cnc(C#N)cn2)n[nH]1 + COC1C(OC(N)=O)C(O)C(Oc2ccc3c(O)c(NC(=O)c4ccc(O)c(CC=C(C)C)c4)c(=O)oc3c2C)OC1(C)C

>  <unitsSymbol>
%

>  <readoutNumber>
96.3

$$$$
>  <molecule>
COc1cccc(OCCCN)c1-c1cc(Nc2cnc(C#N)cn2)n[nH]1 + Nc1ccc(C#CCN(C(=O)Cc2ncc(C(F)(F)F)cc2C(F)(F)F)c2ccc(F)cc2)nn1

>  <unitsSymbol>
%

>  <readoutNumber>
105

$$$$
>  <molecule>
CCc1c2c(nc3ccc(O)cc13)-c1cc3c(c(=O)n1C2)COC(=O)[C@]3(O)CC + Cc1cccc(N(C)C(=O)C2C(O)CCN2c2nc(C)cc(C(F)(F)F)c2C#N)c1

>  <unitsSymbol>
%

>  <readoutNumber>
19.9

$$$$

[in] Name the recorded viability, T/C for CCc1c2c(nc3ccc(O)cc13)-c1cc3c(c(=O)n1C2)COC(=O)[C@]3(O)CC + COC1C(OC(N)=O)C(O)C(Oc2ccc3c(O)c(NC(=O)c4ccc(O)c(CC=C(C)C)c4)c(=O)oc3c2C)OC1(C)C .
[out] 20.1
